Molecular target: GR (Homo sapiens, UniProt P04150)
Sequence (P04150 whole entry): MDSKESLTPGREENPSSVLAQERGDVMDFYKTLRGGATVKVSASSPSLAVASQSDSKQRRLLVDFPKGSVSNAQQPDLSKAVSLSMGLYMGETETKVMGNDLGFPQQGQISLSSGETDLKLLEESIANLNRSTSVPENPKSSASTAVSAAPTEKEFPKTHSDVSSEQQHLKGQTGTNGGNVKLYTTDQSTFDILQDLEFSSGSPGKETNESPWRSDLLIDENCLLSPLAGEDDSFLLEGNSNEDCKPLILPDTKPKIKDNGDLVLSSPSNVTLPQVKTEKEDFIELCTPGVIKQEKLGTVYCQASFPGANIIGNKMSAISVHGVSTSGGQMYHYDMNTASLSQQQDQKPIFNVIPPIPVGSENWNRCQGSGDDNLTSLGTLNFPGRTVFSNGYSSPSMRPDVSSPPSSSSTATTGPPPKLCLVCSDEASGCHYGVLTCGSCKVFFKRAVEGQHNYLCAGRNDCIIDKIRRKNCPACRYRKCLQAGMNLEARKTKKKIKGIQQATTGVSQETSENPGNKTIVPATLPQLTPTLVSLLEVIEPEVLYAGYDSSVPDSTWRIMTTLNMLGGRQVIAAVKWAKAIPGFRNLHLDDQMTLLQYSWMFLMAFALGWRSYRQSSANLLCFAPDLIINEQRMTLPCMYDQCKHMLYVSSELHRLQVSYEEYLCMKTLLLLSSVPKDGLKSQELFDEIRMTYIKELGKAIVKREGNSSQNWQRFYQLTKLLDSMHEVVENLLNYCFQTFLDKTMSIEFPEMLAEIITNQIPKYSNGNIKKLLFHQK
Experiment: Luciferase assays, GR-responsive reporters, A549 cells
Type: cell-based
Design: endogenous in cells; host or cells: A549
Settings: whether the drug acted dose-dependently on GR-luciferase reporters
assay metric: Dose dependent

1) O=C1C=CC(=C(c2ccc(O)cc2)c2ccc(O)cc2)C=C1 : yes
2) COC(=O)[C@H]1[C@H]2C[C@@H]3c4[nH]c5cc(OC)ccc5c4CCN3C[C@H]2C[C@@H](OC(=O)c2cc(OC)c(OC)c(OC)c2)[C@@H]1OC : no
3) CS(=O)(=O)c1ccc([C@@H](O)[C@@H](CO)NC(=O)C(Cl)Cl)cc1 : no
4) CC[C@@]1(O)C[C@H](O[C@H]2C[C@H](N(C)C)[C@H](O[C@H]3C[C@H](O)[C@H](O[C@H]4CCC(=O)[C@H](C)O4)[C@H](C)O3)[C@H](C)O2)c2c(cc3c(c2O)C(=O)c2c(O)cccc2C3=O)[C@H]1C(=O)OC : yes

Query compound follows.
Query string: Please provide the recorded Dose dependent for N=C1C=CC(=C(c2ccc(N)cc2)c2ccc(N)cc2)C=C1 , tested on GR (Homo sapiens, UniProt P04150).
Result string: yes

Sourced from patent US8940705B2
